Give Post-emergence herbicidal activity SETFA (damage score 0-5) for every item shown.
- Test system: SETFA
- METHOD_SUMMARY: Post-emergence herbicidal activity, glasshouse pot test; also: key: 5=total damage to plant; 0=no damage to plant
- Format: in vivo
- MEASUREMENT_SETUP: Setaria faberi; application post-emergence; rate 1000 g/Ha; evaluated after 13 days
Number, no unit, nothing else.

Lookup: For the molecule C=CC1C(O)N(c2cc(C(F)(F)F)ccn2)C(=O)N1C (stereo not drawn) [Compound A31] , report Post-emergence herbicidal activity SETFA (damage score 0-5).
Found: 5

Lookup: For the molecule CCC1C(O)N(c2cc(C(F)(F)F)ccn2)C(=O)N1C (stereo not drawn) [Compound A1] , report Post-emergence herbicidal activity SETFA (damage score 0-5).
Found: 5

Lookup: For the molecule CCC1C(O)N(c2cc(C(F)(F)F)ccn2)C(=O)N1OC (single isomer, unassigned) [Compound A28] , report Post-emergence herbicidal activity SETFA (damage score 0-5).
Found: 5

Lookup: For the molecule CC1C(O)N(c2cc(C(F)(F)F)c(Cl)cn2)C(=O)N1C (stereo not drawn) [Compound A49] , report Post-emergence herbicidal activity SETFA (damage score 0-5).
Found: 5

Lookup: For the molecule CCO[C@H]1[C@H](OC(=O)[C@](OC)(c2ccccc2)C(F)(F)F)N(c2cc(C(F)(F)F)ccn2)C(=O)N1C [Compound A103] , report Post-emergence herbicidal activity SETFA (damage score 0-5).
Found: 1

Lookup: For the molecule CC1C(O)N(c2cc(C(F)(F)F)c(-c3cncnc3)cn2)C(=O)N1C (stereo not drawn) [Compound A11] , report Post-emergence herbicidal activity SETFA (damage score 0-5).
Found: 5

Lookup: For the molecule COCC1C(O)N(c2cc(C(F)(F)F)ccn2)C(=O)N1C (racemic) [Compound A54] , report Post-emergence herbicidal activity SETFA (damage score 0-5).
Found: 5

Lookup: For the molecule CCOC1C(OC(=O)[C@@H](C)c2ccc(CC(C)C)cc2)N(c2cc(C(F)(F)F)ccn2)C(=O)N1C (stereo partly drawn) [Compound A99] , report Post-emergence herbicidal activity SETFA (damage score 0-5).
Found: 0

Lookup: For the molecule CN1C(=O)N(c2cc(C(F)(F)F)ccn2)C(O)C1O (stereo not drawn) [Compound A7] , report Post-emergence herbicidal activity SETFA (damage score 0-5).
Found: 5

---

- System: ECHCG
- METHOD_SUMMARY: Pre-emergence herbicidal activity, glasshouse pot test
- Assay type: in vivo
- MEASUREMENT_SETUP: rate 1000 g/Ha, evaluated after 13 days, scale 0-5
QUANTITY_MEASURED: ECHCG damage score, application pre-emergence

Lookup: Provide ECHCG damage score, application pre-emergence, recorded with ECHCG, of Cc1cnc(N2C(=O)N(C)C(C)C2O)cc1C(F)(F)F (single isomer, unassigned)
Found: 5

Lookup: Provide ECHCG damage score, application pre-emergence, recorded with ECHCG, of COCc1cnc(N2C(=O)N(C)C(C)C2O)cc1C(F)(F)F (stereo not shown)
Found: 5

Lookup: Provide ECHCG damage score, application pre-emergence, recorded with ECHCG, of CCOC1C(O)N(c2cc(C(C)(C)F)ccn2)C(=O)N1C (stereo not shown)
Found: 4

Lookup: Provide ECHCG damage score, application pre-emergence, recorded with ECHCG, of CC1C(O)N(c2cc(Cl)c(C(=O)NC(C)(C)C)cn2)C(=O)N1C (stereo not shown)
Found: 5

Lookup: Provide ECHCG damage score, application pre-emergence, recorded with ECHCG, of COc1ncc(-c2cnc(N3C(=O)N(C)C(C)C3O)cc2C(F)(F)F)cn1 (stereo not shown)
Found: 5

Lookup: Provide ECHCG damage score, application pre-emergence, recorded with ECHCG, of C=CCC1C(O)N(c2cc(C(F)(F)F)ccn2)C(=O)N1C (stereo not shown)
Found: 5

Lookup: Provide ECHCG damage score, application pre-emergence, recorded with ECHCG, of CCOC1C(OC(=O)[C@@H]2CCCO2)N(c2cc(C(F)(F)F)ccn2)C(=O)N1C (stereo partly shown)
Found: 3

Lookup: Provide ECHCG damage score, application pre-emergence, recorded with ECHCG, of CCCOC1C(O)N(c2cc(C(F)(F)F)ccn2)C(=O)N1C (stereo not shown)
Found: 4

Lookup: Provide ECHCG damage score, application pre-emergence, recorded with ECHCG, of CCOC1C(O)N(c2cc(C(C)(F)F)ccn2)C(=O)N1C (stereo not shown)
Found: 3

Lookup: Provide ECHCG damage score, application pre-emergence, recorded with ECHCG, of COC1C(O)N(c2cc(C(F)(F)F)c(I)cn2)C(=O)N1C (stereo not shown)
Found: 5

Lookup: Provide ECHCG damage score, application pre-emergence, recorded with ECHCG, of CC1C(O)N(c2cc(C(F)(F)F)ccn2)C(=O)N1O (stereo not shown)
Found: 4

Lookup: Provide ECHCG damage score, application pre-emergence, recorded with ECHCG, of COCCOC1C(O)N(c2cc(C(F)(F)F)ccn2)C(=O)N1C (stereo not shown)
Found: 3

Lookup: Provide ECHCG damage score, application pre-emergence, recorded with ECHCG, of C#CCN1C(=O)N(c2cc(C(F)(F)F)ccn2)C(O)C1C (stereo not shown)
Found: 4

Lookup: Provide ECHCG damage score, application pre-emergence, recorded with ECHCG, of CON1C(=O)N(c2cc(C(F)(F)C(F)(F)F)ccn2)C(O)C1C (stereo not shown)
Found: 4

Lookup: Provide ECHCG damage score, application pre-emergence, recorded with ECHCG, of CC1C(O)N(c2cc(C(F)(F)F)c(NC(=O)C(C)(C)C)cn2)C(=O)N1C (single isomer, unassigned)
Found: 3

Lookup: Provide ECHCG damage score, application pre-emergence, recorded with ECHCG, of O=C1N2CCOC2C(O)N1c1cc(C(F)(F)F)ccn1 (stereo not shown)
Found: 4

---

- System: ALOMY
- METHOD_SUMMARY: Post-emergence herbicidal activity, glasshouse pot test; also: key: 5=total damage to plant; 0=no damage to plant
- Type: in vivo
- MEASUREMENT_SETUP: Alopecurus myosuroides; application post-emergence; rate 1000 g/Ha; evaluated after 13 days
Give Post-emergence herbicidal activity ALOMY (damage score 0-5) for every item shown.
Number, no unit, nothing else.

Lookup: For the molecule Cc1ccc(-c2cnc(N3C(=O)N(C)C(C)C3O)cc2C(F)(F)F)cn1 (centres unmarked) [Compound A24] , report Post-emergence herbicidal activity ALOMY (damage score 0-5).
Found: 5

Lookup: For the molecule CC1C(O)N(c2cc(C(C)(F)F)ccn2)C(=O)N1C (centres unmarked) [Compound A60] , report Post-emergence herbicidal activity ALOMY (damage score 0-5).
Found: 4

Lookup: For the molecule CCOC1C(O)N(c2cc(C(F)(F)F)c(-c3ccccc3)cn2)C(=O)N1C (centres unmarked) [Compound A13] , report Post-emergence herbicidal activity ALOMY (damage score 0-5).
Found: 4

Lookup: For the molecule C=CCC1C(O)N(c2cc(C(F)(F)F)ccn2)C(=O)N1C (centres unmarked) [Compound A32] , report Post-emergence herbicidal activity ALOMY (damage score 0-5).
Found: 5

Lookup: For the molecule CC1C(O)N(c2cc(C(F)(F)F)c(I)cn2)C(=O)N1C (centres unmarked) [Compound A25] , report Post-emergence herbicidal activity ALOMY (damage score 0-5).
Found: 5

---

- System: SETFA
- METHOD_SUMMARY: Post-emergence herbicidal activity, glasshouse pot test; also: key: 5=total damage to plant; 0=no damage to plant
- Assay type: in vivo
- MEASUREMENT_SETUP: Setaria faberi; application post-emergence; rate 1000 g/Ha; evaluated after 13 days
QUANTITY_MEASURED: Post-emergence herbicidal activity SETFA (damage score 0-5)

Lookup: Provide Post-emergence herbicidal activity SETFA (damage score 0-5), recorded with SETFA, of CN1C(=O)N(c2cc(C(F)(F)F)ccn2)C(O)C1CO (centres unmarked)
Found: 0

Lookup: Provide Post-emergence herbicidal activity SETFA (damage score 0-5), recorded with SETFA, of O=C1N(c2cc(C(F)(F)F)ccn2)C(O)[C@@H]2CCCN12 (some centres unmarked)
Found: 5

Lookup: Provide Post-emergence herbicidal activity SETFA (damage score 0-5), recorded with SETFA, of CC1C(O)N(c2ccc(C(=O)NC(C)(C)C)cn2)C(=O)N1C (centres unmarked)
Found: 5

Lookup: Provide Post-emergence herbicidal activity SETFA (damage score 0-5), recorded with SETFA, of Cc1ccc(-c2cnc(N3C(=O)N(C)C(C)C3O)cc2C(F)(F)F)cn1 (centres unmarked)
Found: 5

Lookup: Provide Post-emergence herbicidal activity SETFA (damage score 0-5), recorded with SETFA, of CCOC1C(O)N(c2cc(C(F)(F)F)c(OC)cn2)C(=O)N1C (centres unmarked)
Found: 5

---

Give Post-emergence herbicidal activity SETFA (damage score 0-5) for every item shown.
- System: SETFA
- METHOD_SUMMARY: Post-emergence herbicidal activity, glasshouse pot test; also: key: 5=total damage to plant; 0=no damage to plant
- Format: in vivo
- MEASUREMENT_SETUP: Setaria faberi; application post-emergence; rate 1000 g/Ha; evaluated after 13 days
Number, no unit, nothing else.

Lookup: For the molecule CCO[C@@H]1C(O)N(c2cc(C(F)(F)F)ccn2)C(=O)N1C (single isomer, unassigned) [Compound A34] , report Post-emergence herbicidal activity SETFA (damage score 0-5).
Found: 5

Lookup: For the molecule COCCOC1C(O)N(c2cc(C(F)(F)F)ccn2)C(=O)N1C (stereo not shown) [Compound A45] , report Post-emergence herbicidal activity SETFA (damage score 0-5).
Found: 3

Lookup: For the molecule CCN1C(=O)N(c2cc(C(F)(F)F)ccn2)C(O)C1C (stereo not shown) [Compound A88] , report Post-emergence herbicidal activity SETFA (damage score 0-5).
Found: 5

Lookup: For the molecule CCO[C@@H]1[C@@H](OC(=O)C(C)Cl)N(c2cc(C(F)(F)F)ccn2)C(=O)N1C (stereo partly shown) [Compound A101] , report Post-emergence herbicidal activity SETFA (damage score 0-5).
Found: 5

This collection of values is drawn from patent US11608323B2.
